- TGT: human GLP-1 receptor (human, UniProt P43220 24-463)
- Sequence (P43220 24-463): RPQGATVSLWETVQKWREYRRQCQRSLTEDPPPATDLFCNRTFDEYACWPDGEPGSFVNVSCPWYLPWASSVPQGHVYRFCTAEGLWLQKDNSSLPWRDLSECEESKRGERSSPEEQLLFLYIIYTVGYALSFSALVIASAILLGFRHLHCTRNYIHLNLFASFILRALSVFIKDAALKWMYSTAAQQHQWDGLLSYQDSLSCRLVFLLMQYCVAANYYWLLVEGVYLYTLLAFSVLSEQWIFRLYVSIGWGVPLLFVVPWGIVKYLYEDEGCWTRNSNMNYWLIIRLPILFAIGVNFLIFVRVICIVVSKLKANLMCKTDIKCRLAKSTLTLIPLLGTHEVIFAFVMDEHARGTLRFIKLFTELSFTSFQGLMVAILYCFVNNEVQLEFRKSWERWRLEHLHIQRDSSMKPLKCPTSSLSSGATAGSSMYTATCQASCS
- ASSAY DETAILS: cell-based or functional assay
Starred links: 1 amine or outer side, 2 acyl side, 3 side chain; linkers in the order of their positions; H or OH if unused. Non-standard residues stand in square brackets, D forms with d. No end group written: not given here. *: point of attachment. 2,4‑diF‑APPA = 2-amino-5-(2,4-difluorophenyl)pentanoic acid, O=C([C@H](CCCc1ccc(F)cc1F)N[*:1])[*:2]; AMCB = 2-amino-5-(4-chloro-2-methylphenyl)pentanoic acid, Cc1cc(Cl)ccc1CCC[C@H](N[*:1])C(=O)[*:2]; ACPP = 2-amino-5-(3-chlorophenyl)pentanoic acid, O=C([C@H](CCCc1cccc(Cl)c1)N[*:1])[*:2]; 2F,4CF3‑APPA = 2-amino-5-(2-fluoro-4-(trifluoromethyl)phenyl)pentanoic acid; 2Cl,4OMe‑APPA = 2-amino-5-(2-chloro-4-methoxyphenyl)pentanoic acid; Bip(2'-Et-4'-OMe) = CCc1cc(OC)ccc1-c1ccc(C[C@H](N)C(=O)O)cc1; Leu(5,5,5,5',5',5'-F6) = N[C@@H](CC(C(F)(F)F)C(F)(F)F)C(=O)O; Nva(5-(3,5-Me2Ph)) = Cc1cc(C)cc(CCC[C@H](N)C(=O)O)c1; 2Cl‑APPA = 2-amino-5-(2-chlorophenyl)pentanoic acid; 2F‑APPA = 2-amino-5-(2-fluorophenyl)pentanoic acid; αMePhe(2-F) = C[C@](N)(Cc1ccccc1F)C(=O)O; Phe(2-F) = N[C@@H](Cc1ccccc1F)C(=O)O; hhPhe = N[C@@H](CCCc1ccccc1)C(=O)O; aThr = C[C@H](O)[C@H](N)C(=O)O; NMeAPPA = not defined here; CNB = not defined here; Aib = CC(C)(N)C(=O)O; Moc = COC(=O)*
Catalogue of binders with associated cAMP release, % activity, 1 µM
A number alone suffices; assume %.

// worked examples, cAMP release, % activity, 1 µM included
cAMP release, % activity, 1 µM recorded for this binder, H[Aib][CNB]GTFTSD[Bip(2'-Et-4'-OMe)][Nva(5-(3,5-Me2Ph))] (reading uncertain) [Seq. ID. No. 30: H-Aib-(CNB)-GTFTSD-Bip(OMe)-(ADMP)] , is 95

cAMP release, % activity, 1 µM recorded for this binder, H[Aib][CNB]GTFTSD[Bip(2'-Et-4'-OMe)][AMCB] (reading uncertain) [Seq. ID. No. 32: H-Aib-(CNB)-GTFTSD-Bip(OMe)-(AMCB)] , is 96

cAMP release, % activity, 1 µM recorded for this binder, H[Aib]QGTFTSD[Bip(2'-Et-4'-OMe)][2,4‑diF‑APPA] [Seq. ID. No. 62: H-Aib-QGTFTSD-Bip(OMe)-(2,4-diF-APPA)] , is 95

More entries:
cAMP release, % activity, 1 µM recorded for this binder, HSQGTFTSD[Bip(2'-Et-4'-OMe)][2Cl‑APPA] [Seq. ID. No. 50: HSQGTFTSD-Bip(OMe)-(2Cl-APPA)] , is 99

cAMP release, % activity, 1 µM recorded for this binder, H[Aib][CNB]G[aThr][αMePhe(2-F)][aThr]SD[Bip(2'-Et-4'-OMe)][hhPhe] (reading uncertain; also: thioamide bond between residues 10 and 11) [Seq. ID. No. 166: H-Aib-(CNB)-G-T(allo)-(α-Me-2F-Phe)-T(allo)-SD-Bip(OMe)-(C═S)-(APPA)] , is 99

cAMP release, % activity, 1 µM recorded for this binder, H[Aib][CNB]G[aThr][αMePhe(2-F)][aThr]SD[Bip(2'-Et-4'-OMe)][2F‑APPA] (reading uncertain) [Seq. ID. No. 116: H-Aib-(CNB)-G-T(allo)-(α-Me-2F-Phe)-T(allo)-SD-Bip(OMe)-(2F-APPA)] , is 99

cAMP release, % activity, 1 µM recorded for this binder, H[Aib][Leu(5,5,5,5',5',5'-F6)]GT[αMePhe(2-F)]TSD[Bip(2'-Et-4'-OMe)][Nva(5-(3,5-Me2Ph))] [Seq. ID. No. 235: H-Aib-(Hfl)-GT-(α-Me-2F-Phe)-TSD-Bip(OMe)-(ADMP)] , is 99

cAMP release, % activity, 1 µM recorded for this binder, H[Aib][CNB]GTFTSD[Bip(2'-Et-4'-OMe)][2F,4CF3‑APPA] (reading uncertain) [Seq. ID. No. 81: H-Aib-(CNB)-GTFTSD-Bip(OMe)-(2F, 4CF3-APPA)] , is 99

cAMP release, % activity, 1 µM recorded for this binder, Ac-H[Aib][CNB]GT[αMePhe(2-F)]TSD[Bip(2'-Et-4'-OMe)][2F‑APPA] (reading uncertain) [Seq. ID. No. 207: CH3CO-H-Aib-(CNB)-GT-(α-Me-2F-Phe)-TSD-Bip(OMe)-(2F-APPA)] , is 96

cAMP release, % activity, 1 µM recorded for this binder, Ac-H[Aib][CNB]GT[αMePhe(2-F)]TSD[Bip(2'-Et-4'-OMe)][hhPhe] (reading uncertain) [Seq. ID. No. 205: CH3CO-H-Aib-(CNB)-GT-(α-Me-2F-Phe)-TSD-Bip(OMe)-(APPA)] , is 99

cAMP release, % activity, 1 µM recorded for this binder, H[Aib]QGTFTSD[Bip(2'-Et-4'-OMe)][ACPP] [Seq. ID. No. 19: H-Aib-QGTFTSD-Bip(OMe)-(ACPP)] , is 99

cAMP release, % activity, 1 µM recorded for this binder, H[Aib][Leu(5,5,5,5',5',5'-F6)]G[aThr][αMePhe(2-F)][aThr]SD[Bip(2'-Et-4'-OMe)][hhPhe] [Seq. ID. No. 228: H-Aib-(Hfl)-G-T(allo)-(α-Me-2F-Phe)-T(allo)-SD-Bip(OMe)-(APPA)] , is 99

cAMP release, % activity, 1 µM recorded for this binder, H[Aib][CNB]GT[αMePhe(2-F)][aThr]SD[Bip(2'-Et-4'-OMe)][2F‑APPA] (reading uncertain) [Seq. ID. No. 120: H-Aib-(CNB)-GT-(α-Me-2F-Phe)-T(allo)-SD-Bip(OMe)-(2F-APPA)] , is 99

cAMP release, % activity, 1 µM recorded for this binder, H[Aib]QGTFTSD[Bip(2'-Et-4'-OMe)][2Cl,4OMe‑APPA] [Seq. ID. No. 68: H-Aib-QGTFTSD-Bip(OMe)-(2Cl, 4OMe-APPA)] , is 96

cAMP release, % activity, 1 µM recorded for this binder, H[Aib][CNB]G[aThr][αMePhe(2-F)][aThr]SD[Bip(2'-Et-4'-OMe)][NMeAPPA] (reading uncertain) [Seq. ID. No. 130: H-Aib-(CNB)-G-T(allo)-(α-Me-2F-Phe)-T(allo)-SD-Bip(OMe)-((NMe)(APPA))] , is 96

cAMP release, % activity, 1 µM recorded for this binder, Moc-H[Aib][CNB]GT[αMePhe(2-F)]TSD[Bip(2'-Et-4'-OMe)][hhPhe] (reading uncertain) [Seq. ID. No. 206: CH3OCO-H-Aib-(CNB)-GT-(α-Me-2F-Phe)-TSD-Bip(OMe)-(APPA)] , is 95

cAMP release, % activity, 1 µM recorded for this binder, H[Aib][CNB]G[aThr][αMePhe(2-F)][aThr]SD[Bip(2'-Et-4'-OMe)][hhPhe] (reading uncertain) [Seq. ID. No. 114: H-Aib-(CNB)-G-T(allo)-(α-Me-2F-Phe)-T(allo)-SD-Bip(OMe)-(APPA)] , is 99

cAMP release, % activity, 1 µM recorded for this binder, H[Aib]QGT[Phe(2-F)]TSD[Bip(2'-Et-4'-OMe)][Nva(5-(3,5-Me2Ph))] [Seq. ID. No. 42: H-Aib-QGT-(2F-Phe)-TSD-Bip(OMe)-(ADMP)] , is 96

cAMP release, % activity, 1 µM recorded for this binder, HSQGTFTSD[Bip(2'-Et-4'-OMe)][2F‑APPA] [Seq. ID. No. 45: HSQGTFTSD-Bip(OMe)-(2F-APPA)] , is 99

cAMP release, % activity, 1 µM recorded for this binder, H[Aib][CNB]G[aThr][αMePhe(2-F)]TSD[Bip(2'-Et-4'-OMe)][2F‑APPA] (reading uncertain) [Seq. ID. No. 112: H-Aib-(CNB)-G-T(allo)-(α-Me-2F-Phe)-TSD-Bip(OMe)-(2F-APPA)] , is 96

This collection of values is drawn from patent US20120021972A1.
